// data source = paper PMC9919730

Target: human recombinant NAPRT (Homo sapiens)
Sequence (Q6XQN6 whole entry): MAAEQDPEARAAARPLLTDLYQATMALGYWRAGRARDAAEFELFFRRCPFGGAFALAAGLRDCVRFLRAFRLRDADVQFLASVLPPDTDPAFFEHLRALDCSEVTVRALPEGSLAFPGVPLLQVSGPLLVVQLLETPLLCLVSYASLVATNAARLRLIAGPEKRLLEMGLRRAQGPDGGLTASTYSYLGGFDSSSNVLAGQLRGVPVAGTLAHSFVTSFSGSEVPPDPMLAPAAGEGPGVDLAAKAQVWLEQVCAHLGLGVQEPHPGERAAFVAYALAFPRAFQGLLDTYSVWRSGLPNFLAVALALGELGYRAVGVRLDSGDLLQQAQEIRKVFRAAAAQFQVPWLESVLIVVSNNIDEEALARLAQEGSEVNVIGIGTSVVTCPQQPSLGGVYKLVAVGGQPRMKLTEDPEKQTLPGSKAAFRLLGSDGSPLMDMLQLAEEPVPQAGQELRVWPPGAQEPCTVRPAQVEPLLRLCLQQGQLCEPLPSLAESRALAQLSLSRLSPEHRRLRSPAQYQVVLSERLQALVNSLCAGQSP
Experiment: Continuous coupled fluorometric NADH assay of NAPRT activity
Details: screening at 0.5 mM
quantity: Inhibitory activity against NAPRT (in words)

c1cnc(N2CCNCC2)nc1; very poor inhibitors
Oc1ncccn1 [Compound 32, 2-hydroxypyrimidine]; very poor inhibitors
NC1CCC(C(=O)O)CC1 (stereo not shown); inactive
CC(=O)Nc1ccccc1 [Compound 37, acetanilide]; inactive

----------
Target: human recombinant NAPRT (Homo sapiens)
Assay: Continuous coupled fluorometric NADH assay of NAPRT activity
quantity: pKi
// pKi: -log10(molar conc.)

Reference set, count: 3
O=C(O)c1cccnc1F; 3.83
O=C(O)c1ccc(Cl)nc1; 3.07
Nc1ncccc1C(=O)O; 3.46

[in] Give the measured pKi for O=C(O)c1ccccc1O
[out] 3.77

[in] Give the measured pKi for O=C(O)c1cccnn1
[out] 3.29
